- Tested on: P. yoelii (265 BY strain) hepatic stages
- ASSAY METHOD TEXT: In vitro assay for P. yoelii liver stage inhibition in primary mouse hepatocytes
- Type: cell-based
- ASSAY CONTEXT: P. yoelii hepatic stages in primary mouse hepatocytes, quantified at 48 h; read-out: IC50
ASSAY METRIC: IC50 (nM)
The reply should contain only the number, in nM.

### Prompt Sample COc1cc(NC(C)CCCN)c2ncccc2c1 (stereo not shown) [Primaquine, reference compound] — what was its IC50?
### Response 640

----------
- Test system: P. falciparum (NF 54 strain) hepatic stages
- ASSAY METHOD TEXT: In vitro assay for P. falciparum liver stage inhibition in primary human hepatocytes
- Assay type: cell-based
- ASSAY CONTEXT: Plasmodium falciparum, Hepatocyte, 120 h
ASSAY METRIC: pIC50
# pIC50 is unitless: minus log10 of the molar concentration; print number only

SUBSTANCE SMILES: COC1=C2[C@@H]3[C@H](O)c4ccc(OC)c(O)c4[C@]2(CCN3C2CCCC2)C[C@H](O)[C@@H]1O
pIC50: 4.37

// moving on: another record for pIC50
### Prompt Sample COC1=C2[C@H]3NCC[C@]2(C[C@H](O)[C@@H]1O)c1c(ccc(OC)c1O)[C@H]3O — what was its pIC50?
### Response 5.38
